Molecular target: PI3K-δ (PI3K(p1108/p857) (h)) (Homo sapiens)
Sequence (O00329 whole entry): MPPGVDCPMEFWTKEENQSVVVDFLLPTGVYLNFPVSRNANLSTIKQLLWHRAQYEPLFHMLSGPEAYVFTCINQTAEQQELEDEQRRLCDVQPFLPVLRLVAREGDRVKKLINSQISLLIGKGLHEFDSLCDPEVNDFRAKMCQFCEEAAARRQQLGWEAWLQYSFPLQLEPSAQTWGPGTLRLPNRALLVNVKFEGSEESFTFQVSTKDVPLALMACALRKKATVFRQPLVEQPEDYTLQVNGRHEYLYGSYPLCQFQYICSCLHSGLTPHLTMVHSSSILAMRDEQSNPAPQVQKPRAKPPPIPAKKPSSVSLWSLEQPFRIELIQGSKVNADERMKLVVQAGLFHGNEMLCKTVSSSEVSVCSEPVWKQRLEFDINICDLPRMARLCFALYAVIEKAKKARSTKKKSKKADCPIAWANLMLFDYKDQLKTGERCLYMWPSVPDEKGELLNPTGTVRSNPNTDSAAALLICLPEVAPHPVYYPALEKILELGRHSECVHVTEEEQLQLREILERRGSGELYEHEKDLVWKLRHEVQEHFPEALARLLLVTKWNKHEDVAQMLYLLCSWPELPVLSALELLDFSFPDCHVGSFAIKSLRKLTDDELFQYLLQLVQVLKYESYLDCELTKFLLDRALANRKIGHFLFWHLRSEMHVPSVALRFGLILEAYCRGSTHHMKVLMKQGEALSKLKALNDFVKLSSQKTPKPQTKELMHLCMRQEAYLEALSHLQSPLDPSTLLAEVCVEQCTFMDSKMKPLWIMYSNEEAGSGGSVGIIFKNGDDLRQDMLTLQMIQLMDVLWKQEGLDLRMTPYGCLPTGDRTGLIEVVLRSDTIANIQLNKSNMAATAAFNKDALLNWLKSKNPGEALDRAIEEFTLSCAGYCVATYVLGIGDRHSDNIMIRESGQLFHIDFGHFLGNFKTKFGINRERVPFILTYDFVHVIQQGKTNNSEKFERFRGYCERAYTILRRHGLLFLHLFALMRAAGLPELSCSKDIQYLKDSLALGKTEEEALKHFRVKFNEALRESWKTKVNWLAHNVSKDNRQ
Sequence (P27986 whole entry partner): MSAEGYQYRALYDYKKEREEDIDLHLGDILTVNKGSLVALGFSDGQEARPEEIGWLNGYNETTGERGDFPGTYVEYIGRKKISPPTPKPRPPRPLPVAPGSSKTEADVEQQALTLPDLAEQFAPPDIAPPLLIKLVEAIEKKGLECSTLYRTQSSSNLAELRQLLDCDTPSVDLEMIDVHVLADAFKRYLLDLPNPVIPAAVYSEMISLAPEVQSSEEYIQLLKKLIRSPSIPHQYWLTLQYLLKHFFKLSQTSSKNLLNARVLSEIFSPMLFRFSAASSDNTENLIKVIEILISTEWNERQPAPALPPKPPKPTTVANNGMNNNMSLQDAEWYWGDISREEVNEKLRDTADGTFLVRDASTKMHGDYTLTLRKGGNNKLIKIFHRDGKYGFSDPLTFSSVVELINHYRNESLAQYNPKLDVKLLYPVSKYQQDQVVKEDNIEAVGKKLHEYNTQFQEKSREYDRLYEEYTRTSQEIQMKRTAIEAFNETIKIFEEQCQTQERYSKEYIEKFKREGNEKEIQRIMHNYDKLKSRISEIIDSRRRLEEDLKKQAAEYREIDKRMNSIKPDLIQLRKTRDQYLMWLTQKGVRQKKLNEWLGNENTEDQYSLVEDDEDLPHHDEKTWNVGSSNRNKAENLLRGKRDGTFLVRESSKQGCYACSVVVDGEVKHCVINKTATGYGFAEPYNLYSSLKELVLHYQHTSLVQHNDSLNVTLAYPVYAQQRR
Test: Evaluation of inhibitory activity against PI3K-δ (HTRF kinase assay)
Format: biochemical
Conditions: compound concentration 0.01 μM; read-out: EXP_VALUE(% Inhibition) PI3K-δ 0.01 μM
parameterMeasured: inhibition at 0.01 µM (%)
Please reply with the bare figure in % and do not write the unit itself.

Data point: COc1ncc(-c2cccc3c(Cl)c([C@H](C)Nc4ncnc5[nH]ccc(=O)c45)n(-c4ccccc4)c(=O)c23)cc1NS(=O)(=O)c1ccc(F)cc1F [Example 232] ; inhibition at 0.01 µM = 23

Entry COc1cc(OC(C)C)cc(-c2cccc3c(Cl)c([C@H](C)Nc4ncnc5[nH]ccc(=O)c45)n(-c4ccccc4)c(=O)c23)c1 [Example 157] ; inhibition at 0.01 µM = 57

Consider C[C@H](Nc1ncnc2[nH]ccc(=O)c12)c1c(Cl)c2cccc(N3C[C@]4(C)C[C@H]3CC(C)(C)C4)c2c(=O)n1-c1ccccc1 [Example 327] . Its measured inhibition at 0.01 µM is 4

Cited source: patent US20230072683A1
